Target: hPTP1B1-400 (Homo sapiens, UniProt P18031)
Sequence (P18031 1-400): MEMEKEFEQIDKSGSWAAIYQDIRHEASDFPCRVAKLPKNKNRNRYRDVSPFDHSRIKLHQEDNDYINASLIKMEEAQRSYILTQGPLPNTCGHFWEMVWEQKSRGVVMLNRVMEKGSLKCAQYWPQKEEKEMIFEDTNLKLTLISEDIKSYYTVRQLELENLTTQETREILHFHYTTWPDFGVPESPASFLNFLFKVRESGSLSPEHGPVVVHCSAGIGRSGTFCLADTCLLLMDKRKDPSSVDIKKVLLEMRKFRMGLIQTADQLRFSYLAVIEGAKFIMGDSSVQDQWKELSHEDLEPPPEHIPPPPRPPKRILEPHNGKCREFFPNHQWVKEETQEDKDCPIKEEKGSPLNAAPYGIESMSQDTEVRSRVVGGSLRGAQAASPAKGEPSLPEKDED
Test: PTP1B inhibition assay (spectrophotometric, 4-nitrophenyl phosphate)
Assay type: biochemical
Settings: DoseResp model fit, Origin 8.0; axis C (mM); read-out: LOGx0 of the IC50 curve
Recorded IC50 values for a group of compounds are listed next.
outcome measure: IC50 (mM)

- compound: "CC(=O)OC[C@H]1O[C@@H](Oc2cc(O)cc3oc(=O)cc(-c4ccc(O)c(O)c4)c23)[C@H](O)[C@@H](O)[C@H]1O"
  outcome measure: "IC50"
  value measured: 0.254
- compound: "COc1cc(O[C@@H]2O[C@H](CO[C@@H]3OCC(O)(CO)[C@H]3O)[C@@H](O)[C@H](O)[C@H]2O)c2c(-c3ccc(O)c(O)c3)cc(=O)oc2c1 (some centres unmarked)"
  outcome measure: "IC50"
  value measured: 0.359
- compound: "O=C(OCC1OC(Oc2c(-c3ccc(O)c(O)c3)oc3cc(O)cc(O)c3c2=O)C(O)C(O)C1O)c1ccccc1 (centres unmarked)"
  outcome measure: "IC50"
  value measured: 0.0888
- compound: "CCCCCCCCCCCCCCCCCCCCOC(=O)C=Cc1ccc(O)c(OC)c1 [Compound 43, Eicosyl 4-hydroxy-3-methoxy-cinnamate]"
  outcome measure: "IC50"
  value measured: 0.648
- compound: "COc1cc(O)cc(CCc2cccc(O)c2)c1"
  outcome measure: "IC50"
  value measured: 0.247
- compound: "O=c1c(O[C@@H]2O[C@H](CO)[C@H](O)[C@H](O)[C@H]2O)c(-c2ccc(O)cc2)oc2cc(O)cc(O)c12"
  outcome measure: "IC50"
  value measured: 0.859
- compound: "COc1c(O)cc2cc(OC)c3cc(O)ccc3c2c1OC"
  outcome measure: "IC50"
  value measured: 0.431
- compound: "COc1cc(-c2cc(=O)c3c(O)c(O)c(OC)cc3o2)ccc1O [Compound 5, 4',5,6-Trihydroxy-3',7-dimethoxyflavone]"
  outcome measure: "IC50"
  value measured: 0.0573

Recorded values, source paper PMC10644722.
